Tested on: Escherichia coli
procedureSummary: Inhibition of Escherichia coli beta-glucuronidase at 100 uM using p-nitrophenyl-glycoside as substrate by spectrophotometric method
inhibition values for the compounds below.

OC[C@H]1[C@H](O)[C@@H](O)[C@@H]2CS/C(=N/Cc3ccccc3)N12 | < 50%
OC[C@H]1[C@H](O)[C@@H](O)[C@@H]2CS/C(=N/CCCCCCCc3ccccc3)N12 | < 50%
OC[C@H]1[C@H](O)[C@@H](O)[C@@H]2CS/C(=N/CCCCCCCCCc3ccccc3)N12 | < 50%
OC[C@H]1[C@H](O)[C@@H](O)[C@@H]2CS/C(=N/CCCCCc3ccccc3)N12 | < 50%

Proceed to the following item.
Give recorded inhibition with Escherichia coli for the following compound: "CCCCCCCCCCCC/N=C1/SC[C@H]2[C@H](O)[C@@H](O)[C@H](CO)N12"
< 50%

---

procedureSummary: Inhibition of almond beta-glucosidase using p-nitrophenyl-glycoside as substrate by spectrophotometric method
Parameters: species or system Prunus dulcis
reportedEndpoint: pIC50
Note on pIC50: it is the negative log10 of concentration, concentration in mol/L.

Can you look up the measured pIC50 of "OC[C@H]1N[C@H](CO)[C@@H](O)[C@@H]1O" for me?
5.00

---

Tested on: Prunus dulcis
procedureSummary: Inhibition of almond beta-glucosidase at 1000 uM using p-nitrophenyl-glycoside as substrate by spectrophotometric method
List of inhibition values.

Sample answers from the record:
CCCCCCNC(=S)N1[C@H](CO)[C@@H](O)[C@H](O)[C@H]1CO | < 50%
OC[C@@H]1N[C@@H](CO)[C@H](O)[C@H]1O | < 50%

Name the reported inhibition value associated with the molecule "CCCCCCCC/N=C1/SC[C@@H]2[C@@H](O)[C@H](O)[C@@H](CO)N12"
< 50%

---

Listed here: compounds with reported IC50 for Beta-galactosidase (Bos taurus).
reportedEndpoint: IC50 (µM)

CCCCCCCCNC(=S)N1[C@H](CO)[C@@H](O)[C@H](O)[C@H]1CO | 414
CCCCCCCCCCNC(=S)N1[C@H](CO)[C@@H](O)[C@H](O)[C@H]1CO | 100

(A) CCCCCCCCCC/N=C1/SC[C@@H]2[C@@H](O)[C@H](O)[C@@H](CO)N12
(B) CCCCNC(=S)N1[C@@H](CO)[C@H](O)[C@@H](O)[C@@H]1CO
(C) CCCCCCCCCCCCNC(=S)N1[C@H](CO)[C@@H](O)[C@H](O)[C@H]1CO
(D) CCCCCCCCCCNC(=S)N1[C@@H](CO)[C@H](O)[C@@H](O)[C@@H]1CO
Sort the 4 compounds by IC50; largest first, smallest last. Show the ranking through the labels, in the order asked for.
B, A, D, C
(B: 473 µM, A: 93 µM, D: 61 µM, C: 24 µM)

---

System: Penicillium decumbens
procedureSummary: Inhibition of Penicillium decumbens alpha-L-rhamnosidase at 100 uM using p-nitrophenyl-glycoside as substrate by spectrophotometric method
reportedEndpoint: inhibition

Use these answered entries as a reference point.
CCCCCCCCCCCCNC(=S)N1[C@@H](CO)[C@H](O)[C@@H](O)[C@@H]1CO | < 50%
CCCCCCCCCCNC(=S)N1[C@H](CO)[C@@H](O)[C@H](O)[C@H]1CO | < 50%
CCCCCCCCCCCCNC(=S)N1[C@H](CO)[C@@H](O)[C@H](O)[C@H]1CO | < 50%
CCCCCCCCCCNC(=S)N1[C@@H](CO)[C@H](O)[C@@H](O)[C@@H]1CO | < 50%

Now look at this entry.
Fill in the blank: the reported inhibition of "CCCCCCCCCC/N=C1/SC[C@@H]2[C@@H](O)[C@H](O)[C@@H](CO)N12" is ____.
< 50%

---

procedureSummary: Inhibition of rice alpha-glucosidase using p-nitrophenyl-glycoside as substrate by spectrophotometric method
Parameters: species or system Oryza sativa
reportedEndpoint: IC50 (µM)

CCCCCCCCNC(=S)N1[C@@H](CO)[C@H](O)[C@@H](O)[C@@H]1CO | 1000
CCCC/N=C1/SC[C@H]2[C@H](O)[C@@H](O)[C@H](CO)N12 | 339

(I) CCCCCC/N=C1/SC[C@H]2[C@H](O)[C@@H](O)[C@H](CO)N12
(II) CCCCNC(=S)N1[C@@H](CO)[C@H](O)[C@@H](O)[C@@H]1CO
API: POST /compare with I and II ; response names the item with higher IC50. # answer = label of selected item
II

---

procedureSummary: Inhibition of yeast alpha-glucosidase using p-nitrophenyl-glycoside as substrate by spectrophotometric method
Set-up: species or system Saccharomyces cerevisiae
reportedEndpoint: IC50 (µM)
Numbers only here, please. The scale is µM.

Data request, read-out IC50, for "OC[C@H]1N[C@H](CO)[C@@H](O)[C@@H]1O"
7.8

---

experimentalSystem: Alpha-mannosidase (Canavalia ensiformis)
procedureSummary: Inhibition of Jack bean alpha-mannosidase at 1000 uM preincubated for 45 mins followed by addition of p-nitrophenyl-glycoside as substrate measured after 30 mins by fluorescence spectrophometry
Recorded inhibition values for a group of molecules are listed next.

Use the examples below as a reference point.
OC[C@H]1N[C@H](CO)[C@@H](O)[C@@H]1O | < 50%
OC[C@@H]1N[C@@H](CO)[C@H](O)[C@H]1O | < 50%
CCCCCCCC/N=C1/SC[C@@H]2[C@@H](O)[C@H](O)[C@@H](CO)N12 | < 50%

Next:
Entry "CCCCCCCC/N=C1/SC[C@H]2[C@H](O)[C@@H](O)[C@H](CO)N12" has what inhibition?
< 50%

---

procedureSummary: Competitive inhibition of Penicillium decumbens alpha-L-rhamnosidase using p-nitrophenyl-glycoside as substrate by Lineweaver-Burk plot analysis
reportedEndpoint: Ki (nM)

(I) OC[C@H]1[C@H](O)[C@@H](O)[C@@H]2CS/C(=N/Cc3ccc(Cl)c(Cl)c3)N12
(II) C[C@H]1NC[C@H](O)[C@H](O)[C@H]1O
Given I and given II , which shows the smaller recorded Ki? Response format: the label of the selected entry.
I

---

procedureSummary: Inhibition of Helix pomatia beta-mannosidase using p-nitrophenyl-glycoside as substrate by spectrophotometric method
reportedEndpoint: pIC50
Give only the number. pIC50 is defined as minus log10 of concentration in molar units.

Need pIC50 of "OC[C@H]1N[C@H](CO)[C@@H](O)[C@@H]1O" , thanks.
3.14

---

procedureSummary: Inhibition of Penicillium decumbens alpha-L-rhamnosidase using p-nitrophenyl-glycoside as substrate by spectrophotometric method
pIC50: −log10 of the molar value.
reportedEndpoint: pIC50

Examples from the recorded data:
CCCCCC/N=C1/SC[C@H]2[C@H](O)[C@@H](O)[C@H](CO)N12 | 5.28
CCCCCCCCCC/N=C1/SC[C@H]2[C@H](O)[C@@H](O)[C@H](CO)N12 | 6.11
OC[C@H]1[C@H](O)[C@@H](O)[C@@H]2CS/C(=N/Cc3cc(Cl)c(Cl)c(Cl)c3)N12 | 6.35

(A) OC[C@H]1[C@H](O)[C@@H](O)[C@@H]2CS/C(=N/Cc3ccccc3Cl)N12
(B) C[C@H]1NC[C@H](O)[C@H](O)[C@H]1O
(C) OC[C@H]1[C@H](O)[C@@H](O)[C@@H]2CS/C(=N/Cc3ccc(Cl)cc3)N12
(D) CCCCCCCC/N=C1/SC[C@H]2[C@H](O)[C@@H](O)[C@H](CO)N12
(E) CCCCCCCCCCCC/N=C1/SC[C@H]2[C@H](O)[C@@H](O)[C@H](CO)N12
Please list these compounds in decreasing order of pIC50. Lab note: final answer is the ordered label list.
E, C, D, A, B
(E: 6.34, C: 6.05, D: 5.80, A: 5.60, B: 5.00)

(A) OC[C@H]1[C@H](O)[C@@H](O)[C@@H]2CS/C(=N/CCCCCCCCCc3ccccc3)N12
(B) OC[C@H]1[C@H](O)[C@@H](O)[C@@H]2CS/C(=N/Cc3ccc(F)cc3)N12
(C) OC[C@H]1[C@H](O)[C@@H](O)[C@@H]2CS/C(=N/CCCc3ccccc3)N12
(D) CCCCCC/N=C1/SC[C@@H]2[C@@H](O)[C@H](O)[C@@H](CO)N12
Kindly order the items shown according to pIC50, from the highest value down. Answer format: list of labels, ordered as asked.
A, B, C, D
(A: 6.06, B: 5.74, C: 5.17, D: 3.31)

(1) OC[C@H]1[C@H](O)[C@@H](O)[C@@H]2CS/C(=N/Cc3cc(Cl)cc(Cl)c3)N12
(2) COc1ccc(C/N=C2/SC[C@H]3[C@H](O)[C@@H](O)[C@H](CO)N23)cc1
So which one has the bigger pIC50 here, 1 or 2 ? Answer with the label corresponding to your selection.
1
(1: 6.15, 2: 5.80)

---

System: Prunus dulcis
procedureSummary: Inhibition of almond beta-glucosidase at 100 uM using p-nitrophenyl-glycoside as substrate by spectrophotometric method
reportedEndpoint: inhibition

A selection of reference data follows.
CCCCCCCCCCNC(=S)N1[C@H](CO)[C@@H](O)[C@H](O)[C@H]1CO | < 50%
CCCCCCCCCCCCNC(=S)N1[C@H](CO)[C@@H](O)[C@H](O)[C@H]1CO | < 50%
CCCCCCCCCCNC(=S)N1[C@@H](CO)[C@H](O)[C@@H](O)[C@@H]1CO | < 50%
CCCCCCCCCC/N=C1/SC[C@H]2[C@H](O)[C@@H](O)[C@H](CO)N12 | < 50%

# context switch: different molecule, same inhibition
// inhibition lookup, key: "CCCCCCCCCCCC/N=C1/SC[C@@H]2[C@@H](O)[C@H](O)[C@@H](CO)N12"
< 50%

FYI, the data here is from ChEMBL document CHEMBL3868599.
